Test system: Plasmodium falciparum
Assay: GSK_TCMDC: Inhibition of Plasmodium falciparum Dd2 in whole red blood cells, using parasite LDH activity as an index of growth. Test compounds present at 2uM
Assay type: functional
Measured Inhibition by item
Just the number please, in %, no unit attached.

Br.CC(CON1C(N)=NC(N)=NC1(C)C)c1ccc(Cl)cc1Cl (centres undefined)	95
Cc1ccc(Cn2ncc(N3CCNCC3)c(Cl)c2=O)cc1NC(=O)Nc1ccc(-c2ccccc2)cc1.O=C(O)C(F)(F)F	30
CN(CCN)Cc1cccc(-c2cccc(-c3nc4cc(C(F)(F)F)ccc4[nH]3)c2)c1.O=C(O)C(F)(F)F	98
Cc1cc(C(=O)NCc2ccc(-c3c(C)noc3C)cc2)n(-c2ccc(Cl)cc2)n1	98
Cc1ccc2[nH]cc(/C=C/C(=O)NC3CCC(CCN4CCc5ccc(C#N)cc5CC4)CC3)c2c1.Cl (centres undefined)	49
CCCC(CNCc1cccc(OC(F)(F)F)c1)CNc1cc(=O)c2ccccc2[nH]1 (centres undefined)	95
O=C(O)C(F)(F)F.c1ccc(CN2CCC(NCc3ccccc3-c3ccc(CNC4CCCC4)cc3)CC2)cc1	33
CC(C)CC(=O)N1CCNC[C@@H]1C(=O)NCCSCc1c(F)cccc1Cl.O=C(O)C(F)(F)F	3

We next turn to a different compound, shown below.
Entry `O=C(NC1CC1)c1ccc(Cn2c(SCc3cccc(Cl)c3)nc3ccccc3c2=O)cc1` : Inhibition on Plasmodium falciparum = 70
